# maps each entry to its DC50
Molecular target: BRAF V600E (Homo sapiens, UniProt P15056+Q96SW2, V600E)
Construct: knock-in of the HiBiT tag to the endogenous BRAF V600E locus; host or cells: A375.10 (A375 clonal line, CRISPR HiBiT knock-in at the endogenous BRAF V600E locus)
Sequence (P15056 whole entry V600E): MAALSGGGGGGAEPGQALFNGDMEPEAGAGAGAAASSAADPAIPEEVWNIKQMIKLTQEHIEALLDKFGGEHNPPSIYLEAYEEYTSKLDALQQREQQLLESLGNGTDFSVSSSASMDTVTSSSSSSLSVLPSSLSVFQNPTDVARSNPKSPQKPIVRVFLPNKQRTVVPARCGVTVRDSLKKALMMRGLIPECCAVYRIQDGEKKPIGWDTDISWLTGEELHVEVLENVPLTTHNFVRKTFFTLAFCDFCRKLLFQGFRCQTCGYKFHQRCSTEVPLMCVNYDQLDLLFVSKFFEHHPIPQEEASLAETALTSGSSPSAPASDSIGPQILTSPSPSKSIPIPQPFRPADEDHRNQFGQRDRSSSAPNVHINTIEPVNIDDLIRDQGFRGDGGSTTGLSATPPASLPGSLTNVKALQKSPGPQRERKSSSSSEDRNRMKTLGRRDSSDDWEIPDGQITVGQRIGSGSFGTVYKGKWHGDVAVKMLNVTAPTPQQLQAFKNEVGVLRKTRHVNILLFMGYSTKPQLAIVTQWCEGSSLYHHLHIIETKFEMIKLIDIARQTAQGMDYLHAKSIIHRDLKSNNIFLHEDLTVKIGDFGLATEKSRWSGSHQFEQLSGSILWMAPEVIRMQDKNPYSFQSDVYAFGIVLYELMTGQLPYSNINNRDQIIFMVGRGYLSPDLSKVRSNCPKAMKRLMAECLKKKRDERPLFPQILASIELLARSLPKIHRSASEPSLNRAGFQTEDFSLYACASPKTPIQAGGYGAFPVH
Sequence (Q96SW2 whole entry): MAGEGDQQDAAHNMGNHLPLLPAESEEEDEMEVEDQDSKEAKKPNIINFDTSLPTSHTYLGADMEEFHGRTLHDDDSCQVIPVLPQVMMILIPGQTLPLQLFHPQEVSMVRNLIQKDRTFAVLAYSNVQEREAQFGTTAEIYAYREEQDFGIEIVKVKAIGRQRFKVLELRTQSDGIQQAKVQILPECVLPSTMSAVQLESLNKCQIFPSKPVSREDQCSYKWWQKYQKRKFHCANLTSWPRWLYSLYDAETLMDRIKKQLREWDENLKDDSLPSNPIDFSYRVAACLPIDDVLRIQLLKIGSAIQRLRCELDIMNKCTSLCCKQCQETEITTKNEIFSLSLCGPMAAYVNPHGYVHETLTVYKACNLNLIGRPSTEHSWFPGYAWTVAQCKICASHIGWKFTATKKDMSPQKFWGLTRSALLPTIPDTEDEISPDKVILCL
Sequence (Q16531 whole entry partner): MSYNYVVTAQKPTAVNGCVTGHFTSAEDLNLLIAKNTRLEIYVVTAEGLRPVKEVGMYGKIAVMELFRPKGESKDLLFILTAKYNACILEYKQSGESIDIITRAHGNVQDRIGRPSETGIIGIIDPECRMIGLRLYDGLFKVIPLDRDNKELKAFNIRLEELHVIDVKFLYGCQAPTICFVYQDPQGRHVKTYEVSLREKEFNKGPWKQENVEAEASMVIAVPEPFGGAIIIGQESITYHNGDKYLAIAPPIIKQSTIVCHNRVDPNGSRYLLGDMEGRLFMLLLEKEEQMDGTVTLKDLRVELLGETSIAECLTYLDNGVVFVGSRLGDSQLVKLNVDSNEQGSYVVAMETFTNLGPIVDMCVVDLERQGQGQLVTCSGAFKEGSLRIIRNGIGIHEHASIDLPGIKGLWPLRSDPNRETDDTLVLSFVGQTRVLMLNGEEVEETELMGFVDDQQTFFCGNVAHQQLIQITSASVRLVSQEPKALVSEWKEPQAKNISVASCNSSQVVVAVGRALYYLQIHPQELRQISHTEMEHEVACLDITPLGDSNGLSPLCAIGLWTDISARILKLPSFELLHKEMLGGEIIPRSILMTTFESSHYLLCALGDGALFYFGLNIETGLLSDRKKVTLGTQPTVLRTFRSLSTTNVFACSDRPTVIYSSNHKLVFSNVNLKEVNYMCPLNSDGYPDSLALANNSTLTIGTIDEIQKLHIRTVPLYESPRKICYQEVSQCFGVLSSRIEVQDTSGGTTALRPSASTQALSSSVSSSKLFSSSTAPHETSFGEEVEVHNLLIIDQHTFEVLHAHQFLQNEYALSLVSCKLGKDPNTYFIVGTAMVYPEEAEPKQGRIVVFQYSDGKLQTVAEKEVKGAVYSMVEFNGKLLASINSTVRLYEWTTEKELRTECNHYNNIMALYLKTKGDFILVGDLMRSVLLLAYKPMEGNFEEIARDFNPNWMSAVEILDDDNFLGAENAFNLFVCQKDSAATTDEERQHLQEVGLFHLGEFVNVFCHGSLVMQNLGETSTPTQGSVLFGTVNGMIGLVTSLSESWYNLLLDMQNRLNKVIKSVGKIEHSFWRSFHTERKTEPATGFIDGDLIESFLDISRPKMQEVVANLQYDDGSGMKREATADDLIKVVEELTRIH
Assay: BRAF V600E HiBiT Degradation Assay
Format: cell-based
Settings: A375.10 cells, BRAF V600E, 2 hours; inflection point; read-out: HiBiT-Degradation A375.10 BRAF 2 hours IP

Solved cases below.
CCN(C)S(=O)(=O)Nc1ccc(F)c(Oc2ccc3ncc(CCC4CCN(C5CCC(c6ccc(NC7CCC(=O)NC7=O)cc6F)CC5)CC4)nc3c2)c1C#N (single isomer, unassigned) [Compound 132] = < 1000 nM
Cn1nc(N2CCC(=O)NC2=O)c2cc(F)c(C3CCC(N4CCC5(CC4)C[C@@H](n4cnc6ccc(Oc7c(F)ccc(NS(=O)(=O)C8CCCC8)c7C#N)cc6c4=O)CO5)CC3)cc21 (single isomer, unassigned) [Compound 113] = < 1000 nM

We now examine a further compound.
INPUT: Please give measured DC50 of the following entry: CN(CCO)S(=O)(=O)Nc1ccc(F)c(Oc2ccc3ncc(C4CC5(CCN(C6CCC(c7cc8c(cc7F)c(N7CCC(=O)NC7=O)nn8C)CC6)CC5)C4)nc3c2)c1C#N (single isomer, unassigned) [Compound 294]
OUTPUT: < 1000 nM
